Test: soluble fraction after stress (log2 fold change); higher = more stays soluble; pooled small domains, quantitative proteomics;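 further: 20 min heating vs room temperature control held 20 min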
Settings: stress: 75 degC
Please enter 1 where soluble fraction (log2) is greater than or equal to -0.3, and -1 where it is lower.

sequence-data: HMSENEIDELRRRFAREAMALMERKGEEVSRTRLAAELSVARARIDAVFPEESDLLEAVTAEWFA
cat: -1

sequence-data: HMSVPEDLYFRELEVEGNKVRISGIASTNNRVSALMRNFDQSEWFRDPSLIKVESKSPGVNEFEIVMTRI
cat: 1

Exercise: Does soluble fraction (log2) meet or surpass -0.3 for `HMKFTELEQLMLKREINTLADIARVLKTTPQAVSNWKARDQIPYHIVAKINASINKDSNDSSLSI` ?
Key: -1

Exercise: Does soluble fraction (log2) meet or surpass -0.3 for `HMVSDISTQYQKIINEALDKQPEVKLADIVTMIKEQTSNKVQNGIVENVAKQMNGIEIIKIGQAKGVRRTT` ?
Key: 1

Exercise: Does soluble fraction (log2) meet or surpass -0.3 for `HMHSEEAALLHRYIDSLEEPQHTVVVMRDIGGYSFEEIASVVQLKEAHIWMILSRARRKLRELYIKTMDHH` ?
Key: 1

Exercise: Does soluble fraction (log2) meet or surpass -0.3 for `HMQVPFGFQRNPSTGTLEEKAEEQLIINQVLSLKNSGIGVSEISKRLGELSVSRIYRIINTAKKNAS` ?
Key: -1

Exercise: Does soluble fraction (log2) meet or surpass -0.3 for `HMLRDTTLLHIDSIVRDGSTAMANITVRDEGTDLEFPLQLRMERGDMGWQVVRIVNYRAYLEAVQKA` ?
Key: -1

Exercise: Does soluble fraction (log2) meet or surpass -0.3 for `HMNGPTPEEKLAVVNAEFVRQYGDEYEELELEGEELEEYYQKALNKEDFEYDIPHLPGWDEP` ?
Key: 1

Exercise: Does soluble fraction (log2) meet or surpass -0.3 for `HMQKAQEYILVDIKGEVQTPGVYKLPVNSRVIDAIEASGGLTKKAVTTYINLSKTLKDENVIIINKKSEL` ?
Key: -1

Exercise: Does soluble fraction (log2) meet or surpass -0.3 for `HMRSFADEGTVEEWIKQAIRENEAAVADYRKGKETAVKFLMGQVMRLSKGEANPADLEDKIKAKLD` ?
Key: 1

Exercise: Does soluble fraction (log2) meet or surpass -0.3 for `HMGKPTPASQVATRWLTGNLPESLPVAGPAPSFEALARTVSTDLHPRSVLQELVRLGVAEEANGVVTLRRQ` ?
Key: 1

Exercise: Does soluble fraction (log2) meet or surpass -0.3 for `HMTKPTLMEVEIKGAIQNPGVYTLKRNSSISKLIKMSGPLLENADTSSISFTHILQDKDVVVIPEIK` ?
Key: 1

Exercise: Does soluble fraction (log2) meet or surpass -0.3 for `HMSDAIQLEQKIGLEAIEWYLALSEQTDDKLLYQQWQSWLAADPQHQLAWSRIEQVNHGLNTL` ?
Key: -1

Exercise: Does soluble fraction (log2) meet or surpass -0.3 for `HMGKTEMPFSTFLTEVDKGNIVSVDIRGSEISGNFRDGKGFKTYSPNYPNLVEKLSAKGVAITAGPR` ?
Key: 1

Exercise: Does soluble fraction (log2) meet or surpass -0.3 for `HMSGPMVPNVVGLSEEMARALLSDYSITIKHAHDGVIPKDRVASQLPLATTHAKVGSSVVLTIS` ?
Key: -1

Exercise: Does soluble fraction (log2) meet or surpass -0.3 for `HMNLDPHVVGHRLRDLRTRRDLTLADVAAETDISVSTLSRLESGSRRATLELLVPLARTYRVTLDELVDA` ?
Key: -1

Exercise: Does soluble fraction (log2) meet or surpass -0.3 for `HMSDEINYVIQINGKNRAEAEFGANLDKESIENLALEHERIKELLNGLTVRKIIVVPKKLVNIVA` ?
Key: -1

Exercise: Does soluble fraction (log2) meet or surpass -0.3 for `HMGVLSPRQSQILALVAQGLGNREIAERLHIAPTTARDHVQAIMRRLNVNSRAAAAVMGVKLGLI` ?
Key: -1

The origin of these recorded values is the domain aggregation screens of Martell et al. (2025).
